Where do the numbers come from? From ChEMBL document CHEMBL1122985.

Test system: Mus musculus
protocolDescription: Percent change in the weight after administering a dose of 150 mg/kg to mice bearing L1210 leukemia
Assay type: functional
measuredParameter: Average weight change (%)
Use % as the unit, but write only the number.

// Average weight change lookup, key: O=S(=O)(NNS(=O)(=O)c1ccccc1)c1ccccc1
0.8

// Average weight change lookup, key: CN(NS(=O)(=O)c1ccc(Cl)cc1)S(=O)(=O)c1ccc(Cl)cc1
6.9

// Average weight change lookup, key: COc1ccc(S(=O)(=O)NN(C)S(=O)(=O)c2ccc(OC)cc2)cc1
4.1

// Average weight change lookup, key: CN(NS(=O)(=O)c1ccc2ccccc2c1)S(=O)(=O)c1ccc2ccccc2c1
4.1

// Average weight change lookup, key: CN(NS(=O)(=O)c1ccccc1)S(=O)(=O)c1ccccc1
-13.5

// Average weight change lookup, key: CN(NC(=O)c1ccccc1)C(=O)c1ccccc1
-2
